Tested on: HCC 2998
Assay: NCI tumour cell line growth inhibition, 48 h
Active and inactive are the calls of the source. Cut-off read from the data, not from the text of the source: active = GI50 up to about 1.1 µM and inactive = higher. Numbered stars: 1 amine (or outer) side, 2 acyl side, 3 side chain; on linkers, the order of the positions; unused ones are H or OH. Square brackets hold non-standard residues; d marks the D form. Peptide text beside a SMILES is read from it. * marks the point of attachment. X30 = CC(=O)N(C)SCC(N[*:1])C(=O)[*:2]; Cbz = O=C(OCc1ccccc1)*; Bn = c1ccc(C*)cc1
Could you please pick one outcome from this set? label 1 for active, label 0 for inactive

Field: example entries. Status: answers known.
INSERT INTO assay_data (molecule, class_label) VALUES
  ('COc1cc(OC)c(C2CC=Cc3c(OC)cc(OC)c(OC)c32)cc1OC (configuration not stated)', 'label 0'),
  ('O=C1CC(c2ccccc2)NCCCCN2CC(CN1)C(C(O)c1ccccc1)C2=O (configuration not stated)', 'label 0');

input: Hi team, can someone confirm the assay call for CC(=O)N(C)SCC(NC(=O)C(Cc1ccccc1)NC(=O)OCc1ccccc1)C(=O)NC(Cc1ccccc1)C(=O)NC(Cc1c[nH]c2ccccc12)C(=O)NC(CCCCNC(=O)OCc1ccccc1)C(=O)NC(C(=O)NC(CSN(C)C(C)=O)C(=O)NC(C(N)=O)C(C)OCc1ccccc1)C(C)OCc1ccccc1 (configuration not stated) (Cbz-F[X30]FWK(Cbz)T(Bn)[X30]T(Bn)-NH2; configuration not given here) ?
output: label 0

input: Hi team, can someone confirm the assay call for Cc1nc(/C(=N\n2cnnc2)Nc2ccc(Br)cc2)no1 ?
output: label 0

input: Hi team, can someone confirm the assay call for COc1cccc(NC(=O)CC(=O)NN2C(=O)/C(=C/c3ccc(N(CCC#N)CCC#N)cc3)N=C2c2cc([N+](=O)[O-])ccc2Cl)c1 ?
output: label 0

input: Hi team, can someone confirm the assay call for CC(=O)Oc1ccccc1C(=O)C1c2cccc(O)c2C(=O)c2c(O)cccc21 ?
output: label 1

input: Hi team, can someone confirm the assay call for CCC(C)N1CN(c2ccccc2)C2(CCN(CC3COc4ccccc4O3)CC2)C1=O (configuration not stated) ?
output: label 0
